- Test system: HT-1080
- assay procedure: Cytotoxicity against human HT1080 cells by sulforhodamine B assay
hey, just use Met if measured IC50 is less than 4 µM, otherwise Not met

Regarding O=C1c2ccccc2-c2nc(N3CCOCC3)c3ccccc3c21 , kindly confirm whether its IC50 is beneath 4 µM.
Not met

Next compound: CN1CCN(c2nc3c(c4ccccc24)C(O)c2ccccc2-3)CC1 (configuration not stated)
Not met

Now consider NCCNc1nc2c(c3ccccc13)C(=O)c1ccccc1-2 .
Not met

Then what about the compound CCN1CCN(c2nc3c(c4ccccc24)C(=O)c2ccccc2-3)CC1 ?
Met

Okay, and CN1CCCN(c2nc3c(c4ccccc24)C(=O)c2ccccc2-3)CC1 ?
Met

One more compound: CN1CCN(c2nc3c(c4ccccc24)Cc2ccccc2-3)CC1
Met

And CCCCCCC1(O)c2ccccc2-c2nc(N3CCN(C)CC3)c3ccccc3c21 (configuration not stated) ?
Met

----------
- Test system: HT-1080
- assay procedure: Cytotoxicity against human HT1080 cells by sulforhodamine B assay
I'd be grateful if you could share measured pIC50 for these entries.
Scale explanation: pIC50 corresponds to minus log10 of a concentration expressed in moles per litre.

# lookup: pIC50 of CC(=O)OC1c2ccccc2-c2nc(N3CCOCC3)c3ccccc3c21 (stereo unspecified)
4.23

Lookup CCN1CCN(c2nc3c(c4ccccc24)C(O)c2ccccc2-3)CC1 (stereo unspecified)
5.06

Another compound to look at: CN1CCCN(c2nc3c(c4ccccc24)Cc2ccccc2-3)CC1
6.60

Can you handle O=C1c2ccccc2-c2nc(N3CCNCC3)c3ccccc3c21 next?
5.70

Consider next the compound CCCCNc1nc2c(c3ccccc13)C(=O)c1ccccc1-2 in the same way.
4.32

How about this compound: CCN1CCN(c2nc3c(c4ccccc24)Cc2ccccc2-3)CC1
4.72

Let us now turn to CCCCNc1nc2c(c3ccccc13)Cc1ccccc1-2
5.36

And what about the compound c1ccc2c(c1)Cc1c-2nc(N2CCOCC2)c2ccccc12 ?
5.91

Check CN1CCN(c2nc3c(c4ccccc24)C(=O)c2ccccc2-3)CC1 too.
5.27

And then CN1CCN(c2nc3c(c4ccccc24)C(C)(O)c2ccccc2-3)CC1 (stereo unspecified) , what is it?
4.65

----------
- assay target: DNA topoisomerase 1 (Homo sapiens) (UniProt P11387)
- Sequence (whole entry): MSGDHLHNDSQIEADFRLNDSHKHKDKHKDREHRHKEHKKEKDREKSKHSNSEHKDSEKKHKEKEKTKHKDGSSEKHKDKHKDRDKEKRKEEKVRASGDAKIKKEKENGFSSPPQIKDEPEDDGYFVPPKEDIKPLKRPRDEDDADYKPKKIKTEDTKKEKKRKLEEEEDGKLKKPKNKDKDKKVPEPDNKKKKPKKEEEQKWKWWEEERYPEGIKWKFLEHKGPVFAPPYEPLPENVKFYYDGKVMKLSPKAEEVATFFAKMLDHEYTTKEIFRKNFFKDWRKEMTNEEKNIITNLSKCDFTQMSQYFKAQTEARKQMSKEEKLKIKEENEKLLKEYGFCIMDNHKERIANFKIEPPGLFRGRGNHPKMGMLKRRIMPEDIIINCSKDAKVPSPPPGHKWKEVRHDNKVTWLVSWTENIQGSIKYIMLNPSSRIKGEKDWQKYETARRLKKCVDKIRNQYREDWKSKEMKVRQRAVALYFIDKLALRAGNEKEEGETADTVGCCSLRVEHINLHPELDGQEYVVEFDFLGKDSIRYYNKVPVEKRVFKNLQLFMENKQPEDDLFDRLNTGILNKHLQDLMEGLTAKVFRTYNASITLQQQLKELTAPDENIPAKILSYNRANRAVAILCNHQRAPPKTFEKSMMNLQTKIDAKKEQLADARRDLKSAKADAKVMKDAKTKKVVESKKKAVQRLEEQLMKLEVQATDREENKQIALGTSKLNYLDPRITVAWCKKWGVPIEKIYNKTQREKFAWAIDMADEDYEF
- assay procedure: Inhibition of DNA topoisomerase 1-mediated supercoiled DNA relaxation at 0.1 mg/mL by agarose gel electrophoresis
Activity calls are given as the source filed them. The calls are words filed in the database; no cut-off is given here.
property name: inhibition

# smiles, inhibition
records = [
    ("CN1CCCN(c2nc3c(c4ccccc24)C(=O)c2ccccc2-3)CC1", "Active"),
    ("CN1CCCN(c2nc3c(c4ccccc24)Cc2ccccc2-3)CC1", "Active"),
    ("CCN1CCN(c2nc3c(c4ccccc24)Cc2ccccc2-3)CC1", "Active"),
    ("c1ccc2c(c1)Cc1c-2nc(N2CCOCC2)c2ccccc12", "Active"),
    ("CN1CCN(c2nc3c(c4ccccc24)Cc2ccccc2-3)CC1", "Active"),
]

// below: inhibition requested for another compound
Enter reported inhibition observed with DNA topoisomerase 1 (Homo sapiens) (UniProt P11387) for CCCCNc1nc2c(c3ccccc13)Cc1ccccc1-2
Active
